- system: T1, human insulin receptor isoform A with C-terminal C9 tag (human, UniProt P06213 28-1382)
- T1 construct: membranes of stably transfected HEK293 cells; also called hIR-A; human IR-A
- assay_protocol: 125I-insulin competition SPA, hIR-A membranes, 0.001% NP-40
readout: pKi
Give bare numbers, as −log10 of the molar value.

>>> recorded_value("INS Analog 19 (other, single-chain insulin B-L2-A-L1-VHH fusion; also called Ex. 19) FVSQHLCGSHLVEALYLVCGERGFFYTPKTGGGGGGGIVEQCCTSICSLYQLENYCGGGGGQGGGGQGGGGQGGGGQGGGGQEVQLLESGGGLVQPGGSLRLSCAASGRYIDETAVAWFRQAPGKEREFVAGIGGGVDITYYADSVKGRFTISRDNSKNTLYLQMNSLRPEDTAVYYCAARPGRPLITSKVADLYPYWGQGTLVTVSSPP")
7.73
>>> recorded_value("INS Analog 11 (other, single-chain insulin B-L2-A-L1-VHH fusion; also called Ex. 11) FVSQHLCGSHLVEALHLVCGERGFFYTPKTGGGGGGGIVEQCCHSICSLEQLENYCGPGPAPGPAPGPAPGPAPGPAPGPAPGPAPGPAEVQLLESGGGLVQPGGSLRLSCAASGRYIDETAVAWFRQAPGKEREFVAGIGGGVDITYYADSVKGRFTISRDNSKNTLYLQMNSLRPEDTAVYYCAARPGRPLITSKVADLYPYWGQGTLVTVSSPP")
7.69

Turning now to a further record.
Input: Would you kindly share the measured pKi for INS Analog 26 (other, single-chain insulin B-L2-A-L1-VHH fusion; also called Ex. 26) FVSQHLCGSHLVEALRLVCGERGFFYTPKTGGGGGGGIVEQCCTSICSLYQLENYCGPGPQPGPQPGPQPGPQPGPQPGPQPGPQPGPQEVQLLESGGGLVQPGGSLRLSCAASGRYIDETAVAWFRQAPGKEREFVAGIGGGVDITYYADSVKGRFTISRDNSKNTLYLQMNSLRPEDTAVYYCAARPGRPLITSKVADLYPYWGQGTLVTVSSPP ?
Output: 6.98
